The binders listed here are annotated with their hGIPR Potency, no HSA, EC50 [pM].
Molecular target: T1, human GIP receptor (human, UniProt P48546 22-466)
T1 sequence (looked up): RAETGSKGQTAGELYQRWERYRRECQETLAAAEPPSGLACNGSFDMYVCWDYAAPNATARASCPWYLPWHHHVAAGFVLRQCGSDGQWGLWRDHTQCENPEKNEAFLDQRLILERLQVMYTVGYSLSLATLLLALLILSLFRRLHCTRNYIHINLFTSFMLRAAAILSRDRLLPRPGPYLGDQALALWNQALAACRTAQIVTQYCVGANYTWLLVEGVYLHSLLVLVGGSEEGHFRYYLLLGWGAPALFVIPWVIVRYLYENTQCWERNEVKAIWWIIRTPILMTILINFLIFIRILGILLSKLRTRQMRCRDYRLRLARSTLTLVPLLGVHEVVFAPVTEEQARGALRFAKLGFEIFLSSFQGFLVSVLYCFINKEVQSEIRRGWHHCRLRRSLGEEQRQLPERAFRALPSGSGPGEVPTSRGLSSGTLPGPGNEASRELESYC
Assay: cell-based or functional assay
Numbered stars: 1 amine (or outer) side, 2 acyl side, 3 side chain; on linkers, the order of the positions; unused ones are H or OH. Square brackets hold non-standard residues; d marks the D form. Side chains are listed from the residue outwards. * marks the point of attachment. C18 diacid = O=C(O)CCCCCCCCCCCCCCCCC(=O)*; C16 diacid = O=C(O)CCCCCCCCCCCCCCC(=O)*; γGlu = O=C(O)[C@H](CCC(=O)[*:2])N[*:1]; Chem. 28 = not defined here; AEEA = NCCOCCOCC(=O)O; Aib = CC(C)(N)C(=O)O
Value expressed in pM; do not type the unit.

The following binders have reported results that may help.
1) Compound 30 (reading uncertain) peptide: H[Aib]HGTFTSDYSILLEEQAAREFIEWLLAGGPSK(Chem. 28)GAPPPSGGGEASELSTAALGRLSAELHRLATLPRTETGSGSP-NH2
6.8
2) Compound 109 (not fully specified; reading uncertain) peptide: Y[Aib]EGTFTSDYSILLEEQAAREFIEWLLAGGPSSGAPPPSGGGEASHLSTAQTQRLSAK(Chem. 28)LHRLATLPRTETGSGSP-NH2
7.42

Entry Compound 89 (peptide) peptide: H[Aib]HGTFTSDYSILLEEQAAREFIEWLLAGGPSSGEASHLSTAALGRLSAELHRLK([AEEA-AEEA-γGlu-C18 diacid])TLPRTETGSGSP-NH2 — recorded hGIPR Potency, no HSA, EC50 [pM] = 6.47

The recorded hGIPR Potency, no HSA, EC50 [pM] for entry Compound 61 (peptide) peptide: H[Aib]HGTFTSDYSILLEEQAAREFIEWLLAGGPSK([AEEA-AEEA-γGlu-C16 diacid])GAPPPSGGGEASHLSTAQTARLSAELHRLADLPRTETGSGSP-NH2 equals 1.3

Lab note: measured hGIPR Potency, no HSA, EC50 [pM] of Compound 21 (reading uncertain) peptide: Y[Aib]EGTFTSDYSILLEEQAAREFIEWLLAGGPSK(Chem. 28)GALAQTLAQTLASELSTAALGRLSAELHELATLPRTETGSGSP-NH2 was 8.63

Lookup result for Compound 102 (reading uncertain) peptide: Y[Aib]EGTFTSDYSILLEEQAAREFIEWLLAGGPSSGAGQAPGQAPGASHLSTAQTQRLSAELHQLK(Chem. 28)TLPRTETGSGSP-NH2 ; measured hGIPR Potency, no HSA, EC50 [pM]: 2.24

The recorded hGIPR Potency, no HSA, EC50 [pM] for entry Compound 68 (peptide) peptide: Y[Aib]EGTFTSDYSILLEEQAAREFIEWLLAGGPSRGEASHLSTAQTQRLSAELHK([AEEA-AEEA-γGlu-C18 diacid])LATLPRTETGSGSP-NH2 equals 1.83
